# Assay Text: protein stability index of a GFP-peptide fusion (yeast GPS) (PSI 1-4); higher = more stable; sorted into four equal gates, so the index is relative within each strain
# Experimental Conditions: pdr5∆
Measurement Label: protein stability index
Please give the numeric answer without any surrounding text.

In plain terms, KIQETELKIRSKTENVR [RPT6] has a documented protein stability index of 2.61

In plain terms, PYKYRLREEIFIANEGV [RPL2A] has a documented protein stability index of 2.94

In plain terms, NDPSAEVRRAAMLNLIN [YCG1] has a documented protein stability index of 3.42

In plain terms, EDSENPSDWQRNSFIRD [ITC1] has a documented protein stability index of 3.12

In plain terms, IDYLQRNDKTLELMDSK [POP1] has a documented protein stability index of 3.19

In plain terms, QNMQQSLQQMQHLQQLK [GAL11] has a documented protein stability index of 2.95

In plain terms, CYLRWQHLRNEHGMNAP [SNF2] has a documented protein stability index of 3.33

* * *

Give protein stability index for every item shown.
# Assay Text: protein stability index of a GFP-peptide fusion (yeast GPS) (PSI 1-4); higher = more stable; sorted into four equal gates, so the index is relative within each strain
# Experimental Conditions: doa10∆
Please give the numeric answer without any surrounding text.

In plain terms, EIGLLPEDALVNDFSDI [SMC3] has a documented protein stability index of 3.44

In plain terms, SYNLEYIESKFCPGEIV [YMR129W/POM152] has a documented protein stability index of 3.15

In plain terms, ARVSPRNNVANKQPRNE [YAR002W/NUP60] has a documented protein stability index of 3.29

In plain terms, GWKPYYKLFIWLVVPTI [YML031W/NDC1] has a documented protein stability index of 1.28

In plain terms, YSLHQIRKDPNNLSNQL [CSE2] has a documented protein stability index of 2.54

In plain terms, ESSKALADSLDRCVDPE [DIS3] has a documented protein stability index of 2.75

In plain terms, SDDYDNEGAASSNPQSA [SMC1] has a documented protein stability index of 2.91

In plain terms, LEAARSEKQNDEEAAGA [PRP8] has a documented protein stability index of 2.37

In plain terms, VLRTALVHDGLARGLRE [RPS12] has a documented protein stability index of 2.57

In plain terms, IVSKEYEKNFEATLESK [ESC2] has a documented protein stability index of 2.98

In plain terms, FEVLAPKWERVFLFDIE [RRI2] has a documented protein stability index of 3.41

In plain terms, AEFKKENLADLDYQIGN [LIN1] has a documented protein stability index of 3.29

In plain terms, NANTVFAGSNNQPHQSQ [YOR098C/NUP1] has a documented protein stability index of 2.85

In plain terms, GKVTDVRSTIKFQLKKV [RPL1A] has a documented protein stability index of 3.77

In plain terms, EKKPAAKKTSTSVDGKK [HTB2] has a documented protein stability index of 2.38

In plain terms, EYWAQRKKKFVLDVDPK [ISW2] has a documented protein stability index of 3.08

In plain terms, SFLFDVLKTLEYKLATY [NUT1] has a documented protein stability index of 2.33

In plain terms, DRDESSPYAAMLAAQDV [RPS14A] has a documented protein stability index of 3.02

In plain terms, RELLVEGYGLRDVMCTD [RPO31] has a documented protein stability index of 2.36

In plain terms, QNFAEEDDSSNSCFSDG [REC8] has a documented protein stability index of 2.56

In plain terms, RKHKRVSPNAAPRQEIS [YAR002W/NUP60] has a documented protein stability index of 2.92

In plain terms, KYKSNTNNMEKIIEDLR [SMC2] has a documented protein stability index of 3.21

In plain terms, FGSGTQNNNTLGGGGLF [YGR119C/NUP57] has a documented protein stability index of 3.37

In plain terms, PLITRHCYPRQLCQITC [RRP46] has a documented protein stability index of 1.89

In plain terms, NDINISSIENNINNNIN [MED2] has a documented protein stability index of 2.87

In plain terms, RRGAHGSELSSKIRKIH [SIR3] has a documented protein stability index of 2.32

In plain terms, SQLDLFLRTMKLTSEET [GRR1] has a documented protein stability index of 2.77

In plain terms, VQVKVLGKYEFSKILPA [ESC2] has a documented protein stability index of 2.03

In plain terms, IAINFTVNHSEKFPNDV [RPP1] has a documented protein stability index of 2.68

In plain terms, RQNKVQHQRIVAFVCSP [RPN10] has a documented protein stability index of 1.24

In plain terms, PLFIVEDDESLGHKELK [RPB2] has a documented protein stability index of 3.34

In plain terms, LQKEFLPHITQLEGFES [RPB2] has a documented protein stability index of 1.9

In plain terms, NKITNQGVTCLHLAVGK [NAS6] has a documented protein stability index of 1.4

In plain terms, LDDLQVILAKNENETRD [PGD1] has a documented protein stability index of 3.27

In plain terms, SSSIKSTGPTGAVSLNP [RRP4] has a documented protein stability index of 3.24

In plain terms, GSGAANENPYNNGVSNL [COR1] has a documented protein stability index of 3.02

In plain terms, KDWTDTFVYILEKLIFD [SRB8] has a documented protein stability index of 2.39

In plain terms, AKAVWENIIIVGGTTSI [ARP9] has a documented protein stability index of 1.89

In plain terms, SSKLVDVYTLPSYVHFK [YML103C/NUP188] has a documented protein stability index of 1.82

In plain terms, LARRTDAPFNKVVLKAL [RPL18A] has a documented protein stability index of 1.22

In plain terms, NVDKNLNEIKEHKIVVL [RPN14] has a documented protein stability index of 2.39

In plain terms, KVDIFEIPETGEYSVKL [FAS2] has a documented protein stability index of 3.17

In plain terms, PLVLLQQIPLLCYMAPM [POP3] has a documented protein stability index of 1.72

In plain terms, SLDDNSTSLEKQINSIK [YJL041W/NSP1] has a documented protein stability index of 2.78

In plain terms, QTWSYLSLYSTDLENSS [ECM29] has a documented protein stability index of 2.41

In plain terms, DVDPEFYLKYVDIRVGK [RET1] has a documented protein stability index of 3.31

In plain terms, FNRENKVSPADAAKKAL [RPS26A] has a documented protein stability index of 3.42

In plain terms, WVYKTKGDGMTSAVASI [RPN1] has a documented protein stability index of 2.75

In plain terms, EVVEVQEETVVEQTAEV [RPS12] has a documented protein stability index of 3.15

In plain terms, DSDGTRLKGDIFCVGSG [PRE2] has a documented protein stability index of 2.88

In plain terms, FEKNTILQQRSKINSTE [MED4] has a documented protein stability index of 2.79

In plain terms, GKIPTLKISLIQIFRAH [PRP8] has a documented protein stability index of 1.72

In plain terms, GTYIQERNPTQRPQRRY [RPS10A] has a documented protein stability index of 3.01

In plain terms, DLKESMVKGLLKSFTES [ECM29] has a documented protein stability index of 3.34

In plain terms, EFLINEGTPINNVYFAA [RPN14] has a documented protein stability index of 2.33

In plain terms, SKQDLIHSLIPVAKWFV [SIN4] has a documented protein stability index of 2.4

In plain terms, KDHLLLEEEFVSNSEIL [RPT2] has a documented protein stability index of 2.87

* * *

# Assay Text: protein stability index of a GFP-peptide fusion (yeast GPS) (PSI 1-4); higher = more stable; sorted into four equal gates, so the index is relative within each strain
# Experimental Conditions: doa10∆
Measurement Label: protein stability index
Please give the numeric answer without any surrounding text.

In plain terms, CEINYYEILLKILITYG [SRB8] has a documented protein stability index of 1.2

In plain terms, VKVARLAGKYIPNLTAK [FAS1] has a documented protein stability index of 3.34

In plain terms, TKSMVKIAEQYSKRIEE [RPN11] has a documented protein stability index of 2.32

In plain terms, KGVGRRYSNLVCKKADV [RPS18A] has a documented protein stability index of 3.46

In plain terms, IKSGVAKLESLLENSVD [MTW1] has a documented protein stability index of 3.29

In plain terms, PRLSHLSLTAVPSFLRP [GRR1] has a documented protein stability index of 2.09

In plain terms, EHTDVIDELIDTKLRLE [YIL149C/MLP2] has a documented protein stability index of 2.87

In plain terms, TGRMRYLKHVSRRFKNG [RPL37A] has a documented protein stability index of 2.67

In plain terms, SDVLRFLQRVRVWEYRQ [RPL15A] has a documented protein stability index of 1.34

In plain terms, LGIEAARYSIIREINYT [RPO31] has a documented protein stability index of 1.76
